What MEC (minimal effective concentration) was measured for each of the following?
- TARGET_OF_ASSAY: recombinant guanylate cyclase reporter cell line (Rattus norvegicus, UniProt P19686+P20595)
- Construct: expressed in transfected cells; host or cells: recombinant reporter cell line
- ASSAY_COMMENT: Action on recombinant guanylate cyclase reporter cell line
- Format: cell-based
- ASSAY_CONDITIONS: in some cases mean values from individual determinations
Numbers only, in µM.

INSERT INTO assay_data (compound, measurement_type, readout_unit, result_value) VALUES
  ('Cc1nc2c(OCc3c(F)cccc3F)cc(Cl)cn2c1C(=O)NCC1CCCCN1 (single isomer, unassigned; ent-6) [Example 191]', 'MEC (minimal effective concentration)', 'µM', 1.00),
  ('Cc1cc(OCc2c(F)ccc(F)c2F)c2nc(C)c(C(=O)NCC(C)(N)CF)n2c1 (single isomer, unassigned; enantiomer a) [Example 285]', 'MEC (minimal effective concentration)', 'µM', 0.3),
  ('Cc1cc(OCc2c(F)cccc2F)c2nc(C)c(C(=O)NCCNC(C)C)n2c1 (racemic)', 'MEC (minimal effective concentration)', 'µM', 1.00),
  ('Cc1cc(OCc2c(F)cccc2F)c2nc(C)c(C(=O)NC[C@H]3CCCN3)n2c1', 'MEC (minimal effective concentration)', 'µM', 3.00),
  ('Cc1nc2c(OCc3c(F)cccc3F)cccn2c1C(=O)NC1CCCN(C)C1 (racemic)', 'MEC (minimal effective concentration)', 'µM', 1.00),
  ('Cc1nc2c(OCc3c(F)cccc3F)cccn2c1C(=O)N[C@@H](C)CN1CCOCC1', 'MEC (minimal effective concentration)', 'µM', 1.00);

Now let's try a different one.
Incoming: For the compound Cc1cc(OCCC(C)C)c2nc(C)c(C(=O)NCC(C)(N)CC(C)C)n2c1 (racemic) , what MEC (minimal effective concentration) is on record?
Outgoing: 1.00

----------
- TARGET_OF_ASSAY: recombinant guanylate cyclase reporter cell line (Rattus norvegicus, UniProt P19686+P20595)
- Construct: expressed in transfected cells; host or cells: recombinant reporter cell line
- ASSAY_COMMENT: Action on recombinant guanylate cyclase reporter cell line
- Assay type: cell-based
- ASSAY_CONDITIONS: in some cases mean values from individual determinations
- Method: B-2. Action on Recombinant Guanylate Cyclase Reporter Cell Line The cellular action of the compounds according to the invention is determined on a recombinant guanylate cyclase reporter cell line, as described in F. Wunder et al., Anal. Biochem. 339, 104-112 (2005). Representative MEC values (MEC=minimal effective concentration) for the compounds according to the invention are shown in the following table (in some cases as mean values obtained from individual determinations): […]
MEASUREMENT_TYPE: MEC (minimal effective concentration) (µM)
One number for each entry, in µM.

Fill in MEC (minimal effective concentration) for each of the 6 compounds listed.
1. Cc1cc(OCc2c(F)cccc2F)c2nc(C)c(C(=O)NC3CC3N)n2c1 (racemic)
2. Cc1cc(OCc2c(F)cccc2F)c2nc(C)c(C(=O)NCC(C)(N)CF)n2c1 (single isomer, unassigned; enantiomer a) [Example 283]
3. COCC(C)(N)CNC(=O)c1c(C)nc2c(OCc3c(F)cccc3F)cc(Cl)cn12 (single isomer, unassigned) [Example 197]
4. CCCC(C)(N)CNC(=O)c1c(C)nc2c(OCc3c(F)cccc3F)cc(C(F)F)cn12 (single isomer, unassigned; enantiomer b) [Example 290]
5. Cc1cc(OCc2c(F)cccc2F)c2nc(C)c(C(=O)NC3(C)CC3(C)N)n2c1 (racemic)
6. Cc1cc(OCc2c(F)cccc2F)c2nc(C)c(C(=O)NCC(N)CC(F)(F)F)n2c1 (single isomer, unassigned) [Example 128]

Outgoing:
[0.30, 0.3, 1.00, 0.3, 0.30, 0.10]

----------
- TARGET_OF_ASSAY: recombinant guanylate cyclase reporter cell line (Rattus norvegicus, UniProt P19686+P20595)
- Construct: expressed in transfected cells; host or cells: recombinant reporter cell line
- Sequence (P19686 1-690): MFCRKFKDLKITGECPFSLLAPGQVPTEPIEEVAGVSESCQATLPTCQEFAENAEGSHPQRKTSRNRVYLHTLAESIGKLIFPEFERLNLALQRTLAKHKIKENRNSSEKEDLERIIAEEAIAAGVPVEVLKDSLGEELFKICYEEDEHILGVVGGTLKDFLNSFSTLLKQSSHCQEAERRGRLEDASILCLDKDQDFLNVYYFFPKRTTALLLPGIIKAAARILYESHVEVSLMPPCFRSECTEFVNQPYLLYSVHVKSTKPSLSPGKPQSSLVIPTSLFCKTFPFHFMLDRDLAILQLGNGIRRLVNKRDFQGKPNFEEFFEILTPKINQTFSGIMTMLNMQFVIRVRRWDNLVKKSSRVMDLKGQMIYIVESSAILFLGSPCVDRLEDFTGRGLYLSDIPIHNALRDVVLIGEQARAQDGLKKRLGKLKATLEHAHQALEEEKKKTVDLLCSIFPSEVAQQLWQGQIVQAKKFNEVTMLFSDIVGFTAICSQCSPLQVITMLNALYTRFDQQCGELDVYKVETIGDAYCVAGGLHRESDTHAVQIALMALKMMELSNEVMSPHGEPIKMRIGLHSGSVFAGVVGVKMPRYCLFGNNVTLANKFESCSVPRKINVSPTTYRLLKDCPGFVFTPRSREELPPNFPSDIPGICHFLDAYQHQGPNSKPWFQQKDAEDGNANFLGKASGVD
- Sequence (P20595 1-619): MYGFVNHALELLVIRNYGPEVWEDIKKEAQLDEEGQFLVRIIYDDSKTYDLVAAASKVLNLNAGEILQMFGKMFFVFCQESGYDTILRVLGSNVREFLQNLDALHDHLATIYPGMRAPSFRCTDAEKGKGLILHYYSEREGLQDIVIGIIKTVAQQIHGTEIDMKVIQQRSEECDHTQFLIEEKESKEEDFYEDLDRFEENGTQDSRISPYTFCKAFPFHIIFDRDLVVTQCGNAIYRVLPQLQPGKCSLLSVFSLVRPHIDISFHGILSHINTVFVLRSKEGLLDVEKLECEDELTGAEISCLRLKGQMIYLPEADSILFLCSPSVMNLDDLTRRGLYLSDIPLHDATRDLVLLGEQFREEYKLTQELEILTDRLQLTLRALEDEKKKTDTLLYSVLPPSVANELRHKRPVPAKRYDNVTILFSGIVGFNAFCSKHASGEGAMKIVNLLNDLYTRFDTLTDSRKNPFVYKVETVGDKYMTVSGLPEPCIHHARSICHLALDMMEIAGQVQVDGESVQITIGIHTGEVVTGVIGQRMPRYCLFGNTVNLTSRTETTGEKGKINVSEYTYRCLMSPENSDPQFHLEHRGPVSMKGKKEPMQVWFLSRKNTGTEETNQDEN
- ASSAY_COMMENT: Action on recombinant guanylate cyclase reporter cell line
- Format: cell-based
- ASSAY_CONDITIONS: in some cases mean values from individual determinations
MEASUREMENT_TYPE: MEC (minimal effective concentration) (µM)
Answers are plain numbers, in µM.

Below are worked cases with known answers.
INSERT INTO measurements (compound, measurement_type, readout_unit, result_value) VALUES
  ('Cc1nc2c(OCc3c(F)cccc3F)cccn2c1C(=O)NC12CNCCC1C2 (single isomer, unassigned) [Example 184]', 'MEC (minimal effective concentration)', 'µM', 1.00),
  ('Cc1nc2c(OCc3c(F)cccc3F)cccn2c1C(=O)NC1CNc2ccccc21 (single isomer, unassigned; ent-8) [Example 47]', 'MEC (minimal effective concentration)', 'µM', 0.30),
  ('Cc1cc(OCc2c(F)cccc2F)c2nc(C)c(C(=O)NCC3(N)CCC3)n2c1', 'MEC (minimal effective concentration)', 'µM', 0.10);

Fill in MEC (minimal effective concentration) for each of the 4 compounds listed.
1. CCC(C)(CN)NC(=O)c1c(C)nc2c(OCc3c(F)ccc(F)c3F)cc(C)cn12 (stereo not shown)
2. CCC(C)(N)CNC(=O)c1c(C)nc2c(OCc3c(F)cccc3F)cc(Cl)cn12 (racemic) [Example 157]
3. Cc1cc(OCc2c(F)cccc2F)c2nc(C)c(C(=O)NC3(C)CCC3(C)N)n2c1 (single isomer, unassigned; enantiomer a) [Example 336]
4. Cc1cc(OCc2c(F)cccc2F)c2nc(C)c(C(=O)NC(CN)c3cnn(C)c3)n2c1 (racemic)

Outgoing:
1. 0.30
2. 0.30
3. 0.30
4. 10.0

----------
- ASSAY_COMMENT: Determination of pharmacokinetic parameters following intravenous and oral administration (rats)
- Type: in vivo, male Wistar rats
- ASSAY_CONDITIONS: intravenous administration in rats
Counter-ions that a name gives are not always drawn.
MEASUREMENT_TYPE: CLblood (L/h/kg)
Answers are plain numbers, in L/h/kg.

Below are worked cases with known answers.
INSERT INTO measurements (compound, measurement_type, readout_unit, result_value) VALUES
  ('Cc1cc(OCc2c(F)ccc(F)c2F)c2nc(C)c(C(=O)NCC(C)(N)CCC(F)(F)F)n2c1 (single isomer, unassigned) [Example 411]', 'CLblood', 'L/h/kg', 1.52),
  ('Cc1nc2c(OCc3c(F)cccc3F)cc(C(F)F)cn2c1C(=O)NCC(C)(N)CF (single isomer, unassigned; enantiomer a) [Example 291]', 'CLblood', 'L/h/kg', 0.84),
  ('Cc1cc(OCc2c(F)ccc(F)c2F)c2nc(C)c(C(=O)NCC(C)(C)N)n2c1', 'CLblood', 'L/h/kg', 1.27),
  ('Cc1cc(OCc2c(F)ccc(F)c2F)c2nc(C)c(C(=O)NCC(C)(N)CCC(F)(F)F)n2c1 (single isomer, unassigned) [Example 410]', 'CLblood', 'L/h/kg', 2.77),
  ('Cc1cc(OCc2c(F)cccc2F)c2nc(C)c(C(=O)NCC(C)(N)CF)n2c1 (racemic) [Example 282, Formate]', 'CLblood', 'L/h/kg', 1.41),
  ('C#Cc1cc(OCc2c(F)cccc2F)c2nc(C)c(C(=O)NCC(C)(N)CCC)n2c1 (stereo not shown)', 'CLblood', 'L/h/kg', 0.98);

Now let's try a different one.
Incoming: For the compound CCCC(C)(N)CNC(=O)c1c(C)nc2c(OCc3c(F)cccc3F)cc(C3CC3)cn12 (single isomer, unassigned; enantiomer b) , what CLblood is on record?
Outgoing: 2.34

Taken from patent US20150274719A1.
